# measurement-target: full-length hepatitis C viral protein NS3•4A (Hepatitis C virus genotype 1a, UniProt P27958)
# Construct: hexa-histidine (N); made in house; host or cells: Sf9 insect cells (baculovirus, pVL1392)
# assay-explanation: biochemical
# Parameters: species or system HCV sub-type strain 1a
# condition-parameters: Enzyme Assay 2 (HCV NS3 Peptide Cleavage Assay) activity, apparent Ki class
pKi: −log10 of the molar value.
Here the recorded pKi is given for each entry.

Some compounds with recorded pKi:
CCC[C@H](NC(=O)[C@@H]1C[C@]2(CC(c3cc(Cl)c4c(c3)OCO4)=NO2)CN1C(=O)[C@@H](NC(=O)CC1CCCCC1)C(C)(C)C)C(=O)C(=O)NC1CC1    > 7.00
CCC[C@H](NC(=O)[C@@H]1C[C@]2(CC(c3cccc(Cl)c3)=NO2)CN1C(=O)[C@@H](NC(=O)CC1CCCCC1)C(C)(C)C)C(=O)C(=O)NCCC(=O)Nc1cc(OC)c2ccccc2c1    6.30 to 7.00
CCC[C@H](NC(=O)[C@@H]1C[C@]2(CC(c3cc(Cl)c(OC)cc3C)=NO2)CN1C(=O)[C@@H](NC(=O)OC1CCCC1)C(C)(C)C)C(=O)C(=O)NC    6.30 to 7.00

Next up:
IN: Fill blank: measured pKi of the compound `CCCC[C@H](NC(=O)CC1CCCCC1)C(=O)N1C[C@@]2(CC(c3cccc(Cl)c3)=NO2)C[C@H]1C(=O)N[C@@H](CCC)C(=O)C(=O)NC1CC1` is ____.
OUT: 6.30 to 7.00

---

# measurement-target: full-length hepatitis C viral protein NS3•4A (Hepatitis C virus genotype 1a, UniProt P27958)
# Construct: hexa-histidine (N); made in house; host or cells: Sf9 insect cells (baculovirus, pVL1392)
# assay-explanation: biochemical
# Design: species or system HCV sub-type strain 1a
# condition-parameters: Enzyme Assay 2 (HCV NS3 Peptide Cleavage Assay) activity, apparent Ki class
assay-endpoint: Ki

CCC[C@H](NC(=O)[C@@H]1C[C@]2(CC(c3cc(Cl)c(OC)cc3OC)=NO2)CN1C(=O)[C@@H](NC(=O)CC1CCCCC1)C(C)(C)C)C(=O)C(N)=O    < 100 nM
CCC[C@H](NC(=O)[C@@H]1C[C@]2(CC(c3cccc(Cl)c3)=NO2)CN1C(=O)Cc1ccc(OC(F)(F)F)cc1)C(=O)C(=O)NC1CC1    > 500 nM
CCC[C@H](NC(=O)[C@@H]1C[C@]2(CC(c3cc(Cl)c(OC)cc3C)=NO2)CN1C(=O)[C@@H](NC(=O)CC(C)(C)C)C(C)(C)C)C(=O)C(=O)NC1CC1    100 to 500 nM

IN: # input compound: `CCC[C@H](NC(=O)[C@@H]1C[C@]2(CC(c3cccc(Cl)c3)=NO2)CN1C(=O)CCCC(=O)Nc1ccc(C)cc1C)C(=O)C(=O)NC1CC1` ; wanted: its Ki
OUT: > 500 nM

IN: Which Ki value is on record for `CCC[C@H](NC(=O)[C@@H]1C[C@]2(CC(c3cc(Cl)c(OC)cc3C)=NO2)CN1C(=O)[C@@H](NC(=O)CC(C)(C)C)C(C)(C)C)C(=O)C(N)=O` ?
OUT: 100 to 500 nM

---

# maps each entry to its Ki
# measurement-target: HCV NS3 protease domain (Hepatitis C virus genotype 1b)
# Construct: The first 181 amino acids of NS3 (residues 1027-1207 of the viral polyprotein); hexa-histidine (C); made in house; host or cells: E. coli BL21/DE3 pLysS
# assay-explanation: biochemical
# condition-parameters: Enzyme Assay 1 (HCV NS3 Protease Domain Peptide Cleavage Assay) activity, apparent Ki class

CCC[C@H](NC(=O)[C@@H]1C[C@]2(CC(c3cccc(Cl)c3)=NO2)CN1C(=O)[C@@H](NC(=O)c1cn(C(C)C)c2ccccc2c1=O)C(C)(C)C)C(=O)C(=O)NC1CC1 [Compound 135]    > 500 nM
CCC[C@H](NC(=O)[C@@H]1C[C@]2(CC(c3cccc(Cl)c3)=NO2)CN1C(=O)[C@@H](NC(=O)C(C)Cn1ccc(C)n1)C(C)(C)C)C(=O)C(=O)NC1CC1 (stereo partly drawn) [Compound 474]    > 500 nM
CCC[C@H](NC(=O)[C@@H]1C[C@]2(CC(c3cccc(Cl)c3)=NO2)CN1C(=O)[C@@H](NC(=O)CC12CCCCC1C2)C(C)(C)C)C(=O)C(=O)NC1CC1 (stereo partly drawn) [Compound 19]    100 to 500 nM
CCC[C@H](NC(=O)[C@@H]1C[C@]2(CC(c3cccc(Cl)c3)=NO2)CN1C(=O)[C@@H](NC(=O)[C@H]1COc2ccccc2O1)C(C)(C)C)C(=O)C(=O)NC1CC1 [Compound 71]    > 500 nM
CCC[C@H](NC(=O)[C@@H]1C[C@]2(CC(c3cccc(Cl)c3)=NO2)CN1C(=O)[C@@H](NC(=O)CC1CCCCC1)C(C)(C)C)C(=O)C(=O)Nc1ccc2c(C)cc(=O)[nH]c2c1 [Compound 181]    > 500 nM
CCC[C@H](NC(=O)[C@@H]1C[C@]2(CC(c3cc(Cl)c4c(c3)CCC(C)(C)O4)=NO2)CN1C(=O)[C@@H](NC(=O)CC1CCCCC1)C(C)(C)C)C(=O)C(=O)NC1CC1 [Compound 74]    100 to 500 nM
CCC[C@H](NC(=O)[C@@H]1C[C@]2(CC(c3cccc(Cl)c3)=NO2)CN1C(=O)[C@@H](NC(=O)O[C@H]1CCOC1)C(C)(C)C)C(=O)C(=O)NC1CC1 [Compound 83]    100 to 500 nM
CCC[C@H](NC(=O)[C@@H]1C[C@]2(CC(c3ccc(C(F)(F)F)cc3)=NO2)CN1C(=O)O[C@H]1CCOC1)C(=O)C(=O)NC1CC1 [Compound 240]    > 500 nM
CCC[C@H](NC(=O)[C@@H]1C[C@]2(CC(c3cccc(Cl)c3)=NO2)CN1C(=O)[C@@H](NC(=O)Cc1cccc(OC)c1)C(C)(C)C)C(=O)C(=O)NC1CC1 [Compound 287]    100 to 500 nM
CCC[C@H](NC(=O)[C@@H]1C[C@]2(CC(c3cc(Cl)c4c(c3)OCCN4C)=NO2)CN1C(=O)[C@@H](NC(=O)CC1CCCCC1)C(C)(C)C)C(=O)C(=O)NC1CC1 [Compound 315]    < 100 nM

IN: So what does the record say about Ki for CCC[C@H](NC(=O)[C@@H]1C[C@]2(CC(c3cccc(Cl)c3)=NO2)CN1C(=O)[C@@H](NC(=O)CC1CCCCC1)C(C)(C)C)C(=O)C(=O)N1CCOCC1 [Compound 410] ?
OUT: > 500 nM

IN: Endpoint output: Ki of CCC[C@H](NC(=O)[C@@H]1C[C@@]2(CC(c3ccc(C)c(F)c3)=NO2)CN1C(=O)[C@@H](NC(=O)O[C@H]1CCOC1)C(C)(C)C)C(=O)C(=O)NC1CC1 [Compound 423] . Value?
OUT: > 500 nM

IN: Param item = CCC[C@H](NC(=O)[C@@H]1C[C@]2(CC(c3cc(C)c(OC)c(C)c3)=NO2)CN1C(=O)[C@@H](NC(=O)O[C@H]1CCOC1)C(C)(C)C)C(=O)C(=O)NC1CC1 [Compound 224] ; retrieve measured Ki.
OUT: 100 to 500 nM

IN: Recorded Ki for CC(C)(C)[C@H](NC(=O)CC1CCCCC1)C(=O)N1C[C@@]2(CC(c3cccc(Cl)c3)=NO2)C[C@H]1C(=O)NC(CC1CCC1)C(=O)C(=O)NCC(F)(F)F (stereo partly drawn) [Compound 268] , please?
OUT: 100 to 500 nM

IN: Please look up its Ki: CCC[C@H](NC(=O)[C@@H]1C[C@]2(CC(c3cccc(Cl)c3)=NO2)CN1C(=O)[C@@H](NC(=O)CC1=CCCCC1)C(C)(C)C)C(=O)C(=O)NC1CC1 [Compound 245]
OUT: 100 to 500 nM

IN: Given CCC[C@H](NC(=O)[C@@H]1C[C@]2(CC(c3cccc4cccnc34)=NO2)CN1C(=O)[C@@H](NC(=O)CC1CCCCC1)C(C)(C)C)C(=O)C(=O)NC1CC1 [Compound 42] , state its recorded Ki.
OUT: 100 to 500 nM

IN: Please look up its Ki: C=C[C@@H]1C[C@]1(NC(=O)[C@@H]1C[C@]2(CC(c3cccc(Cl)c3)=NO2)CN1C(=O)[C@@H](NC(=O)OC1CCOC1)C(C)(C)C)C(=O)NS(=O)(=O)C1CC1 (stereo partly drawn) [Compound 45]
OUT: > 500 nM

IN: GET /values?readout=Ki&item= CCC[C@H](NC(=O)[C@@H]1C[C@]2(CC(c3ccccc3)=NO2)CN1C(=O)[C@@H](NC(=O)NCC)C(C)(C)C)C(=O)C(=O)NC1CC1 [Compound 580]
OUT: 100 to 500 nM

IN: Entry CCC[C@H](NC(=O)[C@@H]1C[C@]2(CC(c3ccc(C)c(F)c3)=NO2)CN1C(=O)O[C@H]1CCOC1)C(=O)C(=O)NC1CC1 [Compound 11] : reported Ki = ?
OUT: > 500 nM

IN: Returns the measured Ki for the input compound. Input: CC(C)(C)[C@H](NC(=O)CC1CCOCC1)C(=O)N1C[C@@]2(CC(c3cccc(Cl)c3)=NO2)C[C@H]1C(=O)NC(CC1CCC1)C(=O)C(=O)NC1CC1 (stereo partly drawn) [Compound 87]
OUT: 100 to 500 nM

IN: Given CCC[C@H](NC(=O)[C@@H]1C[C@]2(CC(c3ccc(Cl)c(C)c3)=NO2)CN1C(=O)[C@@H](NC(=O)CC1CCCCC1)C(C)(C)C)C(=O)C(=O)NC1CC1 [Compound 436] , state its recorded Ki.
OUT: 100 to 500 nM
